The measurements presented in this section are drawn from the supplement of paper PMC6089552.

# System: A673/TR/shEF
# test summary: cell viability (LOESS-normalised, relative to median of negative controls) (log2 ratio); higher = more viable cells (less compound effect), active = hit call of the paper (over 3 MAD below the median)
# experimental parameters: 2.5 µM; library screen: screen1; EWS-FLI1 expression: low (doxycycline-induced shRNA knockdown); treatment time: 72 h
Screen size: about 3,200 compounds; about 300 (9.4%) showed activity. For the sample, actives were picked, then their nearest neighbours and some compounds at random.
Pick one and only one: true (1) = active, false (0) = inactive

query: Status in this test for COC(=O)COc1ccc(Cl)cc1Cl ?
result: false (0)

query: # lookup: test call for CCOP(=S)(OCC)SCSCC
result: false (0)

query: Any idea what this test logged for COc1cc(OC)c2c(c1)OC(c1ccc(OC)c(OC)c1)C(O)C2 (stereo unspecified) ?
result: false (0)

query: Test call for this molecule, please: CCC(C)C(OC(C)=O)C(=O)O[C@H]1[C@H](O)C2[C@@]3(C)C=CC(=O)C(C)(C)C3C[C@@H](OC(=O)C(O)C(C)C)[C@@]2(C)[C@@]23O[C@@H]2C[C@@H](c2ccoc2)[C@]13C (stereo partly specified)
result: false (0)

query: Recorded test call requested for CCN1C[C@]2(C)CC[C@H](OC)[C@@]34C1[C@]1(OCO[C@@]15C[C@H](OC)[C@H]1C[C@]3(O)[C@@H]5[C@H]1OC)[C@@H](OC(C)=O)[C@H]24
result: false (0)

query: Identify the outcome logged in this assay for the molecule shown: CC1(C(=O)O)C2CCC(O2)C1(C)C(=O)O (stereo unspecified)
result: false (0)

query: Look up the recorded call for COc1ccc(C[C@H]2NC[C@H](O)[C@H]2OC(C)=O)cc1 in this test.
result: true (1)

query: For CNC(=O)O/N=C/C(C)(C)SC , which call appears in the assay record?
result: false (0)

query: Tell me the recorded outcome of this test for CN1C2CC3CC1[C@H](O)C2O3 (stereo partly specified) .
result: false (0)

query: I'd appreciate the recorded outcome for O=c1cccc2n1CC1CC2CN2CCCCC12 (stereo unspecified) from this test.
result: false (0)

query: For this molecule, state the assay outcome: CCCCCCCCCCCCCCCC[n+]1ccccc1
result: true (1)

query: Check the results log: what was the call for CN=C1CN(O)C(c2ccccc2)=c2cc(Cl)ccc2=N1 ?
result: false (0)

query: What did the test return for O=C(O)CNCP(=O)(O)O ?
result: false (0)

query: What outcome does the record of this test show for CC[C@@H](C)C(=O)O[C@H]1[C@H](O)[C@H]2[C@@H](CN3C[C@@H](C)CC[C@H]3[C@@]2(C)O)[C@@H]2C[C@]34O[C@]5(O)[C@@H](OC(=O)[C@@](C)(O)[C@@H](C)O)CC[C@@]3(C)[C@@H]5[C@@H](OC(C)=O)[C@@H](OC(C)=O)[C@H]4[C@@]21O ?
result: false (0)

query: # outcome recorded in this test, key = Cc1c(O)c(O)cc2c1CC=C1[C@@]2(C)CC[C@@]2(C)[C@@H]3C[C@](C)(C(=O)O)CC[C@]3(C)CC[C@]12C
result: false (0)

query: How was NCCc1cc(O)c(O)cc1O classified in this test?
result: false (0)

query: I would be grateful if you could indicate the recorded call for C[N+]1=Cc2cc3c(cc2CC1)OCO3 .
result: false (0)

query: What did this assay record as the result for CC(=O)OCC1=C(C(=O)O)N2C(=O)[C@@H](NC(=O)CCCC(N)C(=O)O)C2SC1 (stereo partly specified) ?
result: false (0)

query: Just curious, what result did CN1C2CCC1CC(OC(c1ccccc1)c1ccccc1N)C2 (stereo unspecified) get here?
result: false (0)

query: Test call, this molecule: CN[C@@H](C)[C@H](O)c1ccccc1
result: false (0)

query: Tell me the recorded outcome of this test for NNCc1cccc(O)c1 .
result: false (0)
